Each recorded value in this set is attributed to ChEMBL document CHEMBL4513216.

system: Plasmodium berghei; experiment: Screen against P. berghei liver stage (PbLuc), transformed with Luciferase, at 10uM; type: functional, HepG2; conditions: tested at 10 uM
Screen size: about 69,000 compounds; about 8,600 (12%) showed an effect of 50% or more. The sample holds strong results, similar compounds and a random draw of the others, so the mix is not that of the screen.
Measured INHIBITION values are reported for all entries that follow.
Report the figure in % without appending any unit label.

| Compound | Tested target | Quantity unit | INHIBITION |
| --- | --- | --- | --- |
| COc1cccc2c1OCC(NCCCOc1cccnc1)C2 (stereo not drawn) | Plasmodium berghei | % | 14 |

Here's the next entry for you.
Query (compound): O=C(NCc1cccs1)c1nc2c(o1)CN(CC1CC1)C2 ; field requested: INHIBITION
-31.4

---

Reported values of INHIBITION for individual entries
tested on: Plasmodium berghei; test: Screen against P. berghei liver stage (PbLuc), transformed with Luciferase, at 10uM; type: functional, HepG2; conditions: tested at 10 uM
Out of some 69,000 compounds screened, about 8,600 (12%) showed an effect of 50% or more. What follows is part of a selection rich in strong results, with near analogues and random picks from the rest.
Use % as the unit, but write only the number.

| Molecule | Quantity unit | INHIBITION |
| --- | --- | --- |
| COC(=O)c1ccc(CN[C@@H]2COC[C@H]2Cc2cc(C)no2)cc1 | % | 0.301 |
| CCN1C[C@H]2CCN(C(=O)Cc3cccc(OC)c3)CC[C@H]2S1(=O)=O | % | 52.4 |
| Cc1ccc(CN[C@@H]2COC[C@H]2Cc2cc(C)no2)cc1 | % | -22.6 |

Which INHIBITION is listed for COc1cccc(CC(=O)N2CC[C@@H]3[C@H](CC2)N(C)CCS3(=O)=O)c1 ?
45.4

# INHIBITION lookup, item COc1cccc(CC(=O)N2CC[C@@H]3CN(C)S(=O)(=O)[C@@H]3CC2)c1
-1.28

// query INHIBITION value for entry O=C(c1ccco1)N1C[C@H]2CCCN(CC3CC3)[C@H]2C1
25.5

Give its INHIBITION value. Item: O=C(c1cccc(OCc2cscn2)c1)N1CCOCC1
45.75

Which INHIBITION reading was recorded for the molecule Cc1cc(C[C@@H]2COC[C@H]2NCc2ccc(Cl)c(Cl)c2)on1 ?
50.8

Given O=C(Cc1ccccc1)N1CC[C@@H]2CNS(=O)(=O)[C@@H]2CC1 , state its recorded INHIBITION.
54.1

What does the record list as INHIBITION for O=C(NCCc1ccccc1)N1CC[C@@H]2CNS(=O)(=O)[C@@H]2CC1 ?
23.1

INHIBITION lookup needed for CCOc1cc(CN[C@@H]2COC[C@H]2Cc2cc(C)no2)ccc1O , thanks.
74.9

Sample Nc1nc(N)c2c(n1)OC1(CCN(C(=O)CC3CCCNC3)CC1)C2 (stereo not given) — what was its INHIBITION?
27.1

Quick one: INHIBITION of CC(=O)N1CCN(C(=O)c2cccc(OCc3cscn3)c2)CC1 ?
1.82

Requested read-out: INHIBITION. Entry: Cc1ccoc1C(=O)N1C[C@@H]2COC[C@]2(COCc2cccnc2)C1
-34.7

Need INHIBITION, item NC(=O)C1CCCN(C(=O)c2cccc(OCc3cscn3)c2)C1 (stereo not given)
24.05
